# System: Adjuvant arthritis (paw volume increase) in rats
# assay: Adjuvant arthritis (method of Pearson), antiinflammatory action on the 5th day
# Format: in vivo, rat (male, Wistar-Lewis strain)
# cond: Rattus norvegicus, po, 120 h, 50 mg/kg p.o. once daily, 1st to 5th day, vs untreated control, read-out: Adjuvant arthritis (% inhibition at 50 mg/kg orally)
Outcome: Met for inhibition in vivo at 50 mg/kg of at least 70%; Not met for anything lower.

compound: CCOC(=O)CCc1nc(-c2cc(C(C)(C)C)c(O)c(C(C)(C)C)c2)cs1 [Example 1]
className: Met

Inquiry: Quick check: does CC(C)(C)c1cc(-c2csc(CCC(=O)Nc3nn[nH]n3)n2)cc(C(C)(C)C)c1O [Example 21] have inhibition in vivo at 50 mg/kg greater than or equal to 70%?
Reply text: Not met

Inquiry: Quick check: does Cc1sc(CCC(=O)O)nc1-c1cc(C(C)(C)C)c(O)c(C(C)(C)C)c1 [Example 15] have inhibition in vivo at 50 mg/kg greater than or equal to 70%?
Reply text: Not met

Inquiry: Quick check: does CCOC(=O)CCc1nc(-c2cc(C(C)(C)C)c(O)c(C(C)(C)C)c2)c(C)s1 [Example 14] have inhibition in vivo at 50 mg/kg greater than or equal to 70%?
Reply text: Not met

Inquiry: Quick check: does CN(O)C(=O)CCc1nc(-c2cc(C(C)(C)C)c(O)c(C(C)(C)C)c2)cs1 [Example 19] have inhibition in vivo at 50 mg/kg greater than or equal to 70%?
Reply text: Met
